- Study System: PTGER4 (EP4) (Homo sapiens (Human), UniProt P35408)
- Sequence (P35408 whole entry): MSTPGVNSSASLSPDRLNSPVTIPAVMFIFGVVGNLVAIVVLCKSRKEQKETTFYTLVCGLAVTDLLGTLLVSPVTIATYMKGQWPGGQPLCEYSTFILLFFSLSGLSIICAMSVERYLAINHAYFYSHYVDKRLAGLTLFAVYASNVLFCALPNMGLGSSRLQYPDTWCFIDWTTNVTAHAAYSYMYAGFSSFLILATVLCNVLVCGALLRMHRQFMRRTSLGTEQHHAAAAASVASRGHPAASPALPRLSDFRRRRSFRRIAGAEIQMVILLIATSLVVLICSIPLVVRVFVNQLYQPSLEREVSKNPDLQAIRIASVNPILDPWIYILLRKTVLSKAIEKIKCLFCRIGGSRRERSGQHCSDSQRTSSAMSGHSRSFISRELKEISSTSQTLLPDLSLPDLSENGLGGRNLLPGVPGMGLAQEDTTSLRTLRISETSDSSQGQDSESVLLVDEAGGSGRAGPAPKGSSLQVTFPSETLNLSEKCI
- Assay Info: cell-based
Measurement Type: pIC50
pIC50 (log units): -log10 of the concentration in mol/L.

Ask: Recorded pIC50 of CCCc1cc(-c2cc(NCCc3cc4c(cc3OCC)OCCO4)ncn2)ccc1C(C)C(=O)O (racemic) [Example 487] , please.
Result: 6.87

Ask: What does the record list as pIC50 for CCc1cc(-c2cc(NCCc3cc(F)c4sccc4c3)ncn2)cc(C)c1CC(=O)O [Example 542] ?
Result: 7.04

Ask: Query: pIC50; subject: CCOc1cc2c(cc1CCNc1cc(-c3ccc(CC(=O)O)c(OC(F)(F)F)c3)ncn1)OCCO2 [Example 427]
Result: 7.05

Ask: Form field: reported pIC50 of CCOc1cc(-c2cc(NCCc3ccc4sccc4c3F)ncn2)ccc1C(=O)O [Example 365]
Result: 6.83

Ask: Entry CCOc1cc(-c2cc(NCCc3c(OC)cc4occc4c3C)ncn2)ccc1OCC(=O)O [Ex 102] : reported pIC50 = ?
Result: 6.85

Next:
Ask: // pIC50 lookup, key: CCc1cc(-c2cc(NCCc3ccc4sccc4c3F)ncn2)ccc1CC(=O)O [Example 514]
Result: 6.95

Ask: Returns the measured pIC50 for the input molecule. Input: CCOc1cc(-c2cc(NCCc3cc4ccccc4cc3OC)ncn2)ccc1C(=O)O [Ex 162]
Result: 6.87

Ask: Record request: pIC50 value, item CCCc1cc(-c2cc(NCCc3ccc4sccc4c3)ncn2)ccc1C(C)C(=O)O (racemic) [Example 481]
Result: 7.20

Ask: Quick check: pIC50 of CCOc1cc2c(cc1CCNc1cc(-c3ccc(CC(=O)O)c(OCC)c3)ncn1)OCCO2 [Ex 192] ?
Result: 6.82

Ask: Look up pIC50: CCOc1cc2c(cc1CCNc1cc(-c3ccc(C(=O)O)c(SC)c3)ncn1)OCCO2 [Ex 137]
Result: 6.91

Ask: So what's the measured pIC50 for this one? CCOc1cc(-c2cc(NCCc3ccc4c(c3)OCO4)ncn2)sc1C(=O)O [Ex 111]
Result: 7.05

###

- Study System: PTGER2 (EP2) (Homo sapiens (Human))
- Assay Info: hEP2 b-arrestin assay (PathHunter HEK 293 PTGER2 b-arrestin cells)
- Assay Setup: antagonistic activity, beta-arrestin assay; read-out: hEP2 b-arr IC50
pIC50 by entry:
Here pIC50 is given on a logarithmic scale as minus log10 of the concentration in mol/L.

Please review the following examples before continuing.
Ask: If you can, please state the reported pIC50 value of COc1cc2c(cc1CCNc1cc(-c3ccc(C(=O)O)c(SC)c3)ncn1)OCO2 .
Result: 7.29

Ask: Which measured pIC50 value corresponds to CCOc1cc(-c2cc(NCCc3cc(C(F)(F)F)c4sccc4c3)ncn2)sc1C(=O)O ?
Result: 6.14

Okay, next one:
Ask: Which pIC50 is listed for CC(C)COc1cc(-c2cc(NCCc3cc(F)c4sccc4c3)ncn2)ccc1C(=O)O ?
Result: 6.99

###

- Study System: PTGER4 (EP4) (Homo sapiens (Human))
- Assay Info: cell-based
Measurement Type: pIC50
A value of pIC50 is the negative decimal logarithm of a concentration given in moles per litre.

Ask: Param readout= pIC50; system= PTGER4 (EP4) (Homo sapiens (Human)); entry= COc1cc(-c2cc(NCCc3cc(F)c4sccc4c3)ncn2)ccc1CC(=O)O [Example 475] ; returns value.
Result: 7.21

Ask: Item CCOc1cc(-c2cc(NCCc3cc4c(cc3C)OCCO4)ncn2)sc1-c1noc(=O)[nH]1 [Example 341] with PTGER4 (EP4) (Homo sapiens (Human)) - pIC50?
Result: 7.85

More entries:
Ask: Notebook: pull reported pIC50 for PTGER4 (EP4) (Homo sapiens (Human)), entry CSc1cc(-c2cc(NCCc3cc(F)c4sccc4c3)ncn2)ccc1C(=O)O [Example 364]
Result: 7.28

Ask: // lookup pIC50 | system=PTGER4 (EP4) (Homo sapiens (Human)) | key= CCCc1cc(-c2cc(NCCc3ccc4c(c3C)OCCO4)ncn2)ccc1CC(=O)O [Example 504]
Result: 6.78

###

- Study System: PTGER4 (EP4) (Homo sapiens (Human), UniProt P35408)
- Assay Info: cell-based
Measurement Type: IC50 (nM)
Reply numerically in nM, unit not repeated.

Solved cases below.
Ask: If you can, please state the reported IC50 value of CCOc1cc(-c2cc(NCCc3cc4c(cc3OC)CCCC4)ncn2)ccc1OCC(=O)O .
Result: 22

Ask: So what does the record say about IC50 for Cc1c(CCNc2cc(-c3ccc(CC(=O)O)c(OC(F)(F)F)c3)ncn2)ccc2c1OCCO2 ?
Result: 356

Ask: Can you share its IC50? I mean this compound: CCCc1cc(-c2cc(NCCc3ccc4c(c3)OCCO4)ncn2)ccc1CC(=O)O
Result: 337

Ask: What value of IC50 has been reported for the following compound? CCOc1cc(-c2cc(NCCc3ccc4c(c3)CCCO4)ncn2)sc1C(=O)O
Result: 27

Ask: Reported IC50 for CCOc1cc(-c2cc(NCCc3cc(F)c4sccc4c3)ncn2)sc1CC(=O)O : what is it?
Result: 21

Ask: Tell me the measured IC50 of CCOc1cc(-c2cc(NCCc3c(OC)cc4ccccc4c3C)ncn2)cc(F)c1CC(=O)O , please.
Result: 52

Next:
Ask: // query IC50 value for entry Cc1c(CCNc2cc(-c3ccc(C(=O)O)c(OC4CC4)c3)ncn2)ccc2ccccc12
Result: 78

Ask: Suppose we examine the compound CCCc1cc(-c2cc(NCCc3ccc4ccccc4c3C)ncn2)ccc1C(=O)O ; what IC50 value has been reported?
Result: 96

Ask: Given the entry COc1cc2c(cc1CCNc1cc(-c3ccc4cc(C(=O)O)oc4c3)ncn1)OCCO2 , report its measured IC50.
Result: 1840

Ask: Find the recorded IC50 belonging to CCCOc1cc(-c2cc(NCCc3cc4ccsc4cc3OC)ncn2)ccc1CC(=O)O and report it.
Result: 292

Ask: // query IC50 value for entry CCOc1cc(-c2cc(NCCc3cc4c(cc3SC)OCCO4)ncn2)ccc1OCC(=O)O
Result: 90

Ask: Param item = CCOc1cc(-c2cc(NCCc3cc4c(cc3C)OCCO4)ncn2)ccc1OCC(=O)O ; retrieve measured IC50.
Result: 378

Ask: Item CCCc1cc(-c2cc(NCCc3cc(F)c4sccc4c3)ncn2)sc1CC(=O)O has what recorded IC50?
Result: 19

Ask: Value lookup for IC50; key = CCOc1cc(-c2cc(NCCc3ccc4ccccc4c3)ncn2)sc1C(=O)O
Result: 20

Ask: Suppose we examine the compound CCOc1cc2c(cc1CCNc1cc(-c3ccc(C(=O)O)c(OCC)c3)ncn1)OCCO2 ; what IC50 value has been reported?
Result: 396

Ask: What does the data say about its IC50? Entry: CCOc1cc(-c2cc(NCCc3cc4ccsc4cc3C)ncn2)cc(F)c1CC(=O)O
Result: 480

Ask: If you can, please state the reported IC50 value of COc1cc2c(cc1CCNc1cc(-c3ccc(C(=O)O)c(SC)c3)ncn1)OCCO2 .
Result: 135

Ask: Quick one: IC50 for Fc1cc2ncccc2c(F)c1CCNc1cc(-c2ccc3ncccc3c2)ncn1 ?
Result: 353

###

- Study System: EP2 (Homo sapiens (Human))
- Sequence (P43116 whole entry): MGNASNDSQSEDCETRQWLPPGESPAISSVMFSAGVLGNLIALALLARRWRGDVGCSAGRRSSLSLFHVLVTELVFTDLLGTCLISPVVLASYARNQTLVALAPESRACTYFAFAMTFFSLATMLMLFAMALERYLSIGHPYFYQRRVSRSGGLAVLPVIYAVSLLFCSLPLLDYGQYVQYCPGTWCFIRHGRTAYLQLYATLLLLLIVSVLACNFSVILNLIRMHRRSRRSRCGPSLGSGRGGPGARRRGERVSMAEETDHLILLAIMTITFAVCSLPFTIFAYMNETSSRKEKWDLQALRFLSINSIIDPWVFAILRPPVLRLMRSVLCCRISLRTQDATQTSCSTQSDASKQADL
- Assay Info: hEP2 cAMP assay (SF295 glioblastoma cells, HTRF cAMP)
- Assay Setup: antagonistic activity
Measurement Type: IC50 (nM)
Response body: numeric value in nM, unit text excluded.

Field: example entries. Status: answers known.
Ask: Would you kindly share the measured IC50 for CCOc1cc(-c2cc(NCCc3cc4c(cc3Cl)OC(F)(F)O4)ncn2)sc1C(=O)O ?
Result: 333

Ask: What value of measured IC50 is listed for CCOc1cc(-c2cc(NCCc3cc4ccccc4cc3C)ncn2)ccc1C(=O)O ?
Result: 816

Ask: // query IC50 value for entry CCOc1cc(-c2cc(NCCc3ccc4[nH]ccc4c3)ncn2)ccc1OCC(=O)O
Result: 923

Next:
Ask: Fill blank: measured IC50 of the compound CCOc1cc(-c2cc(NCCc3ccc4c(c3)CCC4)ncn2)sc1C(=O)O is ____.
Result: 283

###

- Study System: EP2 (Homo sapiens (Human))
- Assay Info: hEP2 cAMP assay (SF295 glioblastoma cells, HTRF cAMP)
- Assay Setup: antagonistic activity
Measurement Type: IC50
Give the number first and the unit second.

Ask: Need IC50 of COc1cc2c(cc1CCNc1cc(-c3ccc(C(=O)O)c(OC4CCC4)c3)ncn1)OCO2 , thanks.
Result: 46 nM

Ask: Could you share which IC50 value was measured for CCOc1cc(-c2cc(NCCc3cc4ccsc4cc3OC)ncn2)ccc1C(=O)O ?
Result: 12 nM

Ask: Item CCOc1cc(-c2cc(NCCc3ccc4scc(C)c4c3)ncn2)ccc1CC(=O)O has what recorded IC50?
Result: 782 nM

Ask: Dear colleague, I am looking for the recorded IC50 of the following molecule: CCOc1cc(-c2cc(NCCc3ccc4cccc(F)c4c3)ncn2)ccc1C(=O)O
Result: 6510 nM

***
Ask: // returns reported IC50 for input CCOc1cc2c(cc1CCNc1cc(-c3ccc(C(=O)O)c(OC4CCC4)c3)ncn1)OCCO2
Result: 37 nM
